# system: hOTR (Homo sapiens)
# Construct: expressed in transfected cells
# Sequence (P30559 1-389): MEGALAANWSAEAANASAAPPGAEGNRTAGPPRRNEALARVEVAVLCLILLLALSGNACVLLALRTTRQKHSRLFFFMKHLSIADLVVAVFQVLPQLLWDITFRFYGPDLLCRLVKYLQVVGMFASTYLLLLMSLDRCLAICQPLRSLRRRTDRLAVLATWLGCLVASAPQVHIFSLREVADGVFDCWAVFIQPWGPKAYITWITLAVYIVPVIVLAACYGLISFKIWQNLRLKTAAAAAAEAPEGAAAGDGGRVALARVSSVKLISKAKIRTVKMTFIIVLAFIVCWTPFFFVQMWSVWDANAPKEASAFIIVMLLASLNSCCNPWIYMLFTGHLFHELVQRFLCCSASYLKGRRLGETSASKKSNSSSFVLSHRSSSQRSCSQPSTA
# assay-explanation: IP-One accumulation assay, agonist function, HEK293 cells expressing hOTR
# Type: cell-based
# run-conditions: ratio of EC50 of E- and Z-isomer
Numbered stars: 1 amine (or outer) side, 2 acyl side, 3 side chain; on linkers, the order of the positions; unused ones are H or OH. Bridge positions count the residues as written; N and C are the ends. Square brackets hold non-standard residues; d marks the D form. Peptide text beside a SMILES is read from it. Phe(4-(Z)-phenylazo) = N[C@@H](Cc1ccc(/N=N\c2ccccc2)cc1)C(=O)O; AMPB(E) = O=C(c1ccc(/N=N/c2ccc(CN[*:1])cc2)cc1)[*:2]; X1 = O=C([C@H](Cc1ccc(/N=N/c2ccccc2)cc1)N[*:1])[*:2]; X2 = O=C(c1ccc(/N=N\c2ccc(CN[*:1])cc2)cc1)[*:2]
readout: OTR E/Z ratio EC50

>>> readout_number("CC[C@H](C)[C@@H]1NC(=O)[C@H](Cc2ccc(O)cc2)NC(=O)[C@@H](N)CSSC[C@@H](C(=O)NCc2ccc(/N=N/c3ccc(C(=O)NCC(N)=O)cc3)cc2)NC(=O)[C@H](CC(N)=O)NC(=O)[C@H](CCC(N)=O)NC1=O [E-10] (H-CYIQNC[AMPB(E)]G-NH2; disulfide 1-6)")
3.1
>>> readout_number("CC[C@H](C)[C@@H]1NC(=O)[C@H](Cc2ccc(O)cc2)NC(=O)[C@@H](N)CSSC[C@@H](C(=O)N[C@@H](Cc2ccc(/N=N\\c3ccccc3)cc2)C(=O)N[C@@H](CC(C)C)C(=O)NCC(N)=O)NC(=O)[C@H](CC(N)=O)NC(=O)[C@H](CCC(N)=O)NC1=O [Z-9] (H-CYIQNC[Phe(4-(Z)-phenylazo)]LG-NH2; disulfide 1-6)")
2.5
>>> readout_number("CC[C@H](C)[C@@H]1NC(=O)[C@H](Cc2ccc(O)cc2)NC(=O)[C@@H](N)CSSC[C@@H](C(=O)N[C@@H](Cc2ccc(/N=N/c3ccccc3)cc2)C(=O)N[C@@H](CC(C)C)C(=O)NCC(N)=O)NC(=O)[C@H](CC(N)=O)NC(=O)[C@H](CCC(N)=O)NC1=O [E-9] (H-CYIQNC[X1]LG-NH2; disulfide 1-6)")
2.5
>>> readout_number("CC[C@H](C)[C@@H]1NC(=O)[C@H](Cc2ccc(O)cc2)NC(=O)[C@@H](N)CSSC[C@@H](C(=O)NCc2ccc(/N=N\\c3ccc(C(=O)N[C@@H](CC(C)C)C(=O)NCC(N)=O)cc3)cc2)NC(=O)[C@H](CC(N)=O)NC(=O)[C@H](CCC(N)=O)NC1=O [Z-11] (H-CYIQNC[X2]LG-NH2; disulfide 1-6)")
2.0
>>> readout_number("CC[C@H](C)[C@@H]1NC(=O)[C@H](Cc2ccc(O)cc2)NC(=O)[C@@H](N)CSSC[C@@H](C(=O)NCc2ccc(/N=N\\c3ccc(C(=O)NCC(N)=O)cc3)cc2)NC(=O)[C@H](CC(N)=O)NC(=O)[C@H](CCC(N)=O)NC1=O [Z-10] (H-CYIQNC[X2]G-NH2; disulfide 1-6)")
3.1
>>> readout_number("CC[C@H](C)[C@@H]1NC(=O)[C@H](Cc2ccc(O)cc2)NC(=O)[C@@H](N)CSSC[C@@H](C(=O)NCc2ccc(/N=N/c3ccc(C(=O)N[C@@H](CC(C)C)C(=O)NCC(N)=O)cc3)cc2)NC(=O)[C@H](CC(N)=O)NC(=O)[C@H](CCC(N)=O)NC1=O [E-11] (H-CYIQNC[AMPB(E)]LG-NH2; disulfide 1-6)")
2.0
>>> readout_number("CC[C@H](C)[C@@H]1NC(=O)[C@H](Cc2ccc(/N=N\\c3ccccc3)cc2)NC(=O)[C@@H](N)CSSC[C@@H](C(=O)N2CCC[C@H]2C(=O)N[C@@H](CC(C)C)C(=O)NCC(N)=O)NC(=O)[C@H](CC(N)=O)NC(=O)[C@H](CCC(N)=O)NC1=O [Z-8] (H-C[Phe(4-(Z)-phenylazo)]IQNCPLG-NH2; disulfide 1-6)")
1.3
>>> readout_number("CC[C@H](C)[C@@H]1NC(=O)[C@H](Cc2ccc(/N=N/c3ccccc3)cc2)NC(=O)[C@@H](N)CSSC[C@@H](C(=O)N2CCC[C@H]2C(=O)N[C@@H](CC(C)C)C(=O)NCC(N)=O)NC(=O)[C@H](CC(N)=O)NC(=O)[C@H](CCC(N)=O)NC1=O [E-8] (H-C[X1]IQNCPLG-NH2; disulfide 1-6)")
1.3
